System: Epithelial cell
Experiment: Cytotoxicity against albino rat epithelial rat by MTT assay
Format: cell-based
pIC50: −log10 of the molar value.

compound | pIC50
N=C(N)NS(=O)(=O)c1ccc(NC(=O)Cn2c(=O)c(Cc3ccccc3)nc3ccccc32)cc1 | 8.05
O=C(Cn1c(=O)c(Cc2ccccc2)nc2ccccc21)NNC(=S)Nc1ccccc1 | 7.79
O=C(O)Cn1c(=O)c(Cc2ccccc2)nc2ccccc21 | 4.87
Nn1c(S)nnc1Cn1c(=O)c(Cc2ccccc2)nc2ccccc21 | 8.27
CCOC(=O)Cn1c(=O)c(Cc2ccccc2)nc2ccccc21 | 7.99
O=C(Cn1c(=O)c(Cc2ccccc2)nc2ccccc21)NN=c1c(=O)c2ccccc2c1=O | 8.10
O=c1c(Cc2ccccc2)nc2ccccc2n1CC(O)CCl (stereo not given) | 7.79
O=C(Cn1c(=O)c(Cc2ccccc2)nc2ccccc21)N/N=C/c1ccccc1O | 8.09
O=c1c(Cc2ccccc2)nc2ccccc2n1Cc1nnco1 | 8.01
O=c1c(Cc2ccccc2)nc2ccccc2n1Cc1nnc(S)n1-c1ccccc1 | 8.11

----------
Examples of compounds with documented Selectivity Index follow.
Species on record: Homo sapiens
Assay: Selectivity for MAO-B (unknown origin) to MAO-A (unknown origin)

compound | Selectivity Index
Cc1ccc(C(=O)NNC(=O)Cn2c(=O)c(Cc3ccccc3)nc3ccccc32)cc1 | 1.88
O=C(Cn1c(=O)c(Cc2ccccc2)nc2ccccc21)NNC(=S)Nc1ccccc1 | 0.649
NC(=S)NNC(=O)Cn1c(=O)c(Cc2ccccc2)nc2ccccc21 | 1.33
CCOC(=O)NNC(=O)Cn1c(=O)c(Cc2ccccc2)nc2ccccc21 | 2.07
O=c1c(Cc2ccccc2)nc2ccccc2n1CC(O)CO (stereo not given) | 0.921

----------
Molecular target: Matrix metalloproteinase-9 (Homo sapiens, UniProt P14780)
Sequence (P14780 whole entry): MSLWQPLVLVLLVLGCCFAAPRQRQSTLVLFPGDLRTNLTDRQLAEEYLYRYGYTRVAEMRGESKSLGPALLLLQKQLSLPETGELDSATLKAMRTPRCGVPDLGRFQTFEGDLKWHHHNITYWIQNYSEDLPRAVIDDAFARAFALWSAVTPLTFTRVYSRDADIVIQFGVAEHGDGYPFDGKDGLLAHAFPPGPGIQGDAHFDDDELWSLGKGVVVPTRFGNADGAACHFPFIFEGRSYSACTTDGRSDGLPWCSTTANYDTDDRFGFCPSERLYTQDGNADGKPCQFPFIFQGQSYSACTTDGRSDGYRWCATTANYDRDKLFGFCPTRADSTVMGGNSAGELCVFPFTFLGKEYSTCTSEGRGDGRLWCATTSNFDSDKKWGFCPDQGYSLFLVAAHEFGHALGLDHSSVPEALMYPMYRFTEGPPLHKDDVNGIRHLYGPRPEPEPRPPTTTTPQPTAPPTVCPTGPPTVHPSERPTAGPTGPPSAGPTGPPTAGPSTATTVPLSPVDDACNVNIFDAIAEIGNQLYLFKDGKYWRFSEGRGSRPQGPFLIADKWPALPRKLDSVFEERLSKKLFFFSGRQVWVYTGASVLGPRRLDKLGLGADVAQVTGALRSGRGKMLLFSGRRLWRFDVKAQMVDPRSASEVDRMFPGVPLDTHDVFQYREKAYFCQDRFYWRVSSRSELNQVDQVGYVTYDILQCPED
Experiment: Inhibition of MMP9 (unknown origin) by colorimetric assay
Items are presented alongside their recorded IC50.

compound | assay.target | IC50 / nM
NC(=S)NNC(=O)Cn1c(=O)c(Cc2ccccc2)nc2ccccc21 | Matrix metalloproteinase-9 (Homo sapiens, UniProt P14780) | 5.07
O=c1c(Cc2ccccc2)nc2ccccc2n1CC(O)CO (configuration not stated) | Matrix metalloproteinase-9 (Homo sapiens, UniProt P14780) | 9.3
O=C(Cn1c(=O)c(Cc2ccccc2)nc2ccccc21)NNC(=S)Nc1ccccc1 | Matrix metalloproteinase-9 (Homo sapiens, UniProt P14780) | 8.41
CCOC(=O)NNC(=O)Cn1c(=O)c(Cc2ccccc2)nc2ccccc21 | Matrix metalloproteinase-9 (Homo sapiens, UniProt P14780) | 4.5
COc1cc(/C=N/NC(N)=S)ccc1O | Matrix metalloproteinase-9 (Homo sapiens, UniProt P14780) | 106
O=c1c(O)c(-c2ccc(O)c(O)c2)oc2cc(O)cc(O)c12 | Matrix metalloproteinase-9 (Homo sapiens, UniProt P14780) | 174
Cc1ccc(C(=O)NNC(=O)Cn2c(=O)c(Cc3ccccc3)nc3ccccc32)cc1 | Matrix metalloproteinase-9 (Homo sapiens, UniProt P14780) | 23.1

----------
Molecular target: Amine oxidase [flavin-containing] A (Homo sapiens, UniProt P21397)
Sequence (P21397 whole entry): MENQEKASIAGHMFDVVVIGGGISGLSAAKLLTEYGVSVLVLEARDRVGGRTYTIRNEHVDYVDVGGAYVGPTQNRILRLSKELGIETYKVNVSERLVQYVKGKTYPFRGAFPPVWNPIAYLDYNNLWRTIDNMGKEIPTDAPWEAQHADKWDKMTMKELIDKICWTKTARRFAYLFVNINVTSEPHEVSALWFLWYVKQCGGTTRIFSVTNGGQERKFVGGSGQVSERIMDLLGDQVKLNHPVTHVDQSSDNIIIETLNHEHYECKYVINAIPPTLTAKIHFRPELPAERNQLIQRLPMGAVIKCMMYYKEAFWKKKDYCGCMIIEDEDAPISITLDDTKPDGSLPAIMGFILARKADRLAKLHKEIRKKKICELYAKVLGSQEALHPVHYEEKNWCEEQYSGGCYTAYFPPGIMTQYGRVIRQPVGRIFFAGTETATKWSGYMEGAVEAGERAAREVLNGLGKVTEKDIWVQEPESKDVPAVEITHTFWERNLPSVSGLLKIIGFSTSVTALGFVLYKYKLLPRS
Assay: Inhibition of MAO-A (unknown origin) by multi-well spectrophotometry
Details: read-out: IC50
pIC50: −log10 of the molar value.
Mark true for reported pIC50 of 8 or greater; mark false for anything smaller.

molecule | label
O=C(Cn1c(=O)c(Cc2ccccc2)nc2ccccc21)NNC(=S)Nc1ccccc1 | true
c1ccc(Cc2nc3ccccc3n3cnnc23)cc1 | true
C(=N\NC1Nc2ccccc2N=C1Cc1ccccc1)/c1ccccc1 (stereo not drawn) | false
O=c1c(Cc2ccccc2)nc2ccccc2n1CC(O)CO (stereo not drawn) | false
Cc1ccc(C(=O)NNC(=O)Cn2c(=O)c(Cc3ccccc3)nc3ccccc32)cc1 | true

----------
Listing: IC50 of selected compounds
Molecular target: Amine oxidase [flavin-containing] B (Homo sapiens)
Sequence (P27338 whole entry): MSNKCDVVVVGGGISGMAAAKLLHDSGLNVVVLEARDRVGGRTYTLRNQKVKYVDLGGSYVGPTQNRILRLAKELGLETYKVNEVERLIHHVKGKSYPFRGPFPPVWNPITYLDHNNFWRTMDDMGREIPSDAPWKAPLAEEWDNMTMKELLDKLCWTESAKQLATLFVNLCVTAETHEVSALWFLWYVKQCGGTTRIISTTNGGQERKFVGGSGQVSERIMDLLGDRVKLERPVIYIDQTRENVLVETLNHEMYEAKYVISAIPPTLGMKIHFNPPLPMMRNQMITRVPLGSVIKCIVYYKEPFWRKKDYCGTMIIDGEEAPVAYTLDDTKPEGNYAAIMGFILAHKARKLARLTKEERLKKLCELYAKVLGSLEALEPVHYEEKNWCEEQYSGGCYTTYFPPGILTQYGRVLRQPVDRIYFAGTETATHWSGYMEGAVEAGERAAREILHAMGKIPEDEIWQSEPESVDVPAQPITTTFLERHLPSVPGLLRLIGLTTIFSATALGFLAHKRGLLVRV
test.readout: IC50 (nM)

sample.smiles | reported.result
CCOC(=O)NNC(=O)Cn1c(=O)c(Cc2ccccc2)nc2ccccc21 | 11.2
NC(=S)NNC(=O)Cn1c(=O)c(Cc2ccccc2)nc2ccccc21 | 7.09

----------
System: HCT-116
Experiment: Inhibition of cell migration in human HCT116 cells assessed as suppression of cell migration incubated for 20 hrs by wound healing assay relative to control
Format: functional
Quick list: inhibition (INH) per entry.

compound | inhibition (INH) [%]
CCOC(=O)NNC(=O)Cn1c(=O)c(Cc2ccccc2)nc2ccccc21 | 28.82
O=c1c(Cc2ccccc2)nc2ccccc2n1CC(O)CO (stereo not given) | 27.48
O=C(Cn1c(=O)c(Cc2ccccc2)nc2ccccc21)NNC(=S)Nc1ccccc1 | 21.27
NC(=S)NNC(=O)Cn1c(=O)c(Cc2ccccc2)nc2ccccc21 | 61.29
Cc1ccc(C(=O)NNC(=O)Cn2c(=O)c(Cc3ccccc3)nc3ccccc32)cc1 | 73.32

----------
Tested on: Epithelial cell
Experiment: Cytotoxicity against albino rat epithelial rat by MTT assay
Assay type: cell-based
IC50 strictly less than 30 nM = Met. Otherwise Not met.

compound | label
CCOC(=O)NNC(=O)Cn1c(=O)c(Cc2ccccc2)nc2ccccc21 | Not met
O=c1c(Cc2ccccc2)nc2ccccc2n1CC(O)CO (stereo unspecified) | Not met
O=C1CC(=O)N(C(=O)Cn2c(=O)c(Cc3ccccc3)nc3ccccc32)N1 | Met
NNC(=O)Cn1c(=O)c(Cc2ccccc2)nc2ccccc21 | Met
NC(=S)NNC(=O)Cn1c(=O)c(Cc2ccccc2)nc2ccccc21 | Not met
O=C(Cn1c(=O)c(Cc2ccccc2)nc2ccccc21)OCCNCCO | Met
CC(C)(C)OC(=O)C(Cc1ccccc1)NC(=O)Cn1c(=O)c(Cc2ccccc2)nc2ccccc21 (stereo unspecified) | Met
Nn1c(Cn2c(=O)c(Cc3ccccc3)nc3ccccc32)nnc1Cn1c(=O)c(Cc2ccccc2)nc2ccccc21 | Met
Cc1ccc(C(=O)NNC(=O)Cn2c(=O)c(Cc3ccccc3)nc3ccccc32)cc1 | Not met
COc1cccc2c1C(=O)c1c(O)c3c(c(O)c1C2=O)C[C@@](O)(C(=O)CO)C[C@@H]3O[C@H]1C[C@H](N)[C@H](O)[C@H](C)O1 [DOXORUBICIN] | Met
O=c1c(Cc2ccccc2)nc2ccccc2n1Cc1nnc(S)o1 | Met

----------
Test: Suppression of HIF1alpha expression in human HCT116 cells assessed as fold change by qRT-PCR analysis
Type: functional, HCT-116
test.readout: fold change (FC)

molecule | test.readout | reported.result
O=c1c(Cc2ccccc2)nc2ccccc2n1CC(O)CO (stereo not given) | fold change (FC) | >5
NC(=S)NNC(=O)Cn1c(=O)c(Cc2ccccc2)nc2ccccc21 | fold change (FC) | >11.02
Cc1ccc(C(=O)NNC(=O)Cn2c(=O)c(Cc3ccccc3)nc3ccccc32)cc1 | fold change (FC) | >15.94
O=C(Cn1c(=O)c(Cc2ccccc2)nc2ccccc21)NNC(=S)Nc1ccccc1 | fold change (FC) | >5
CCOC(=O)NNC(=O)Cn1c(=O)c(Cc2ccccc2)nc2ccccc21 | fold change (FC) | >5

----------
# Lookup of reported pIC50 keyed by entry
Biological target: UniProtKB P21397
Test: Inhibition of MAO-A (unknown origin) by multi-well spectrophotometry
Conditions: read-out: IC50
pIC50: −log10 of the molar value.

compound | pIC50
CC(C)(C)OC(=O)C(Cc1ccccc1)NC(=O)Cn1c(=O)c(Cc2ccccc2)nc2ccccc21 (stereo not drawn) | 7.82
CCOC(=O)NNC(=O)Cn1c(=O)c(Cc2ccccc2)nc2ccccc21 | 7.92
NC(=S)NNC(=O)Cn1c(=O)c(Cc2ccccc2)nc2ccccc21 | 7.98

These data points were gathered from ChEMBL document CHEMBL4825689.
